- Measured on: Retinoic acid receptor RXR-alpha (Homo sapiens) (UniProt P19793)
- Sequence (P19793 whole entry, looked up): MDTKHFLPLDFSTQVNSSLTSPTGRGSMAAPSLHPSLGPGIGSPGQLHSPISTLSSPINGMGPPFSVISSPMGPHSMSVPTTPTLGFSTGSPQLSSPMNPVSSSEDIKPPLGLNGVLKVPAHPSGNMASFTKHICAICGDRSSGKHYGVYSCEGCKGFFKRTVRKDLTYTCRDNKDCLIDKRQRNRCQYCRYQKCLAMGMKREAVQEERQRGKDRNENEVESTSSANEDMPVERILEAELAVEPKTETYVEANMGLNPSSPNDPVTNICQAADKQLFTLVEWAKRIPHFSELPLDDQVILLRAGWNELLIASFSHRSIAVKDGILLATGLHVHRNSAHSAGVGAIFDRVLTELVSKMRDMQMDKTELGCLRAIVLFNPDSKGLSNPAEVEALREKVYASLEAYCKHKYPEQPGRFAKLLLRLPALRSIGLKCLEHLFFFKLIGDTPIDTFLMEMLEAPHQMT
- Test description: qHTS assay to identify small molecule agonists of the RXR signaling pathway (AID 1159527); also: nearly all actives have a fitted effect of over 35% in size
- Measurement setup: HEK293T RXRa-UAS-bla, beta-lactamase ratio, 16 h; series mostly up to 76.8 µM
- Source text: U.S. Tox21 Program National Center for Advancing Translational Sciences [NCATS] NIH Chemical Genomics Center [NCGC] U.S. Environmental Protection Agency [EPA] National Institutes of Environmental Health Sciences [NIEHS] National Toxicology Program [NTP] U.S. Food and Drug Administration [FDA] Tox21 Assay Overview: The Retinoid X receptor (RXR), a nuclear hormone receptor expressed in liver, spleen, placenta, epidermis, central nervous system. […]
Inconclusive results are not listed. Active and inactive are the calls of the source. Calls follow the shape of the full dose curve.
Quantity: outcome

Worked cases, answers included:
CC(=O)Nc1c(I)c(NC(C)=O)c(I)c(C(=O)O)c1I : inactive
CCOc1ccc(NC(C)=O)cc1 : inactive
CCc1nc(N)nc(N)c1-c1ccc(Cl)cc1 : inactive
O=C(O)CC(O)C(=O)O (stereo not drawn) : inactive
Cc1ccc(S(=O)(=O)O)cc1 : inactive

Field: outcome. Fill in for each record below.
1. CN(C)CCOC(C)(c1ccccc1)c1ccccn1 (stereo not drawn)
2. CC(C)NCC(O)c1ccc(O)c(O)c1 (stereo not drawn)
3. NC(=O)c1cccnc1
4. OC[C@H]1O[C@H](O[C@]2(CCl)O[C@H](CCl)[C@@H](O)[C@@H]2O)[C@H](O)[C@@H](O)[C@H]1Cl
5. O=C1c2c(O)cccc2Cc2cccc(O)c21
6. CN1CCc2cccc3c2[C@H]1Cc1ccc(O)c(O)c1-3
7. CCN(CC)C(=O)c1cccc(C)c1
8. CN(C)CCOC(c1ccccc1)c1ccccc1

Result:
inactive
inactive
inactive
inactive
inactive
inactive
inactive
inactive

---

- Test description: qHTS assay to identify small molecule antagonists of the sonic hedgehog signaling (Shh) pathway - cell viability counter screen (AID 1259367); also: nearly all actives have a fitted effect of over 55% in size
- Measurement setup: NIH/3T3 Gli1-Luc viability, CellTiter-Fluor, 24 h; series mostly up to 92.4 µM
Records with an inconclusive call do not appear. Activity calls are given as the source filed them. Calls come from the whole dose curve; as a rule, active = well fitted cell-killing curve with a large enough effect in the repeat runs; inconclusive = weak or mixed curves, or effect the other way; inactive = no such curve, though single readings can be large or run the other way.
Just give me one of these, please: true (1) = active, false (0) = inactive

// below: answered compounds
CCCCOC(=O)c1ccc(O)cc1 : false (0)
Cc1ncc([N+](=O)[O-])n1C : false (0)
CN1[C@@H]2CC(OC(=O)[C@H](CO)c3ccccc3)C[C@H]1[C@@H]1O[C@@H]12 (stereo not given in full) : false (0)
CCOc1ccc(NC(C)=O)cc1 : false (0)
COc1ccc2cc(S(=O)(=O)N[C@H](CC(=O)N[C@H](Cc3ccc(CN4[C@H](C)CCC[C@@H]4C)cc3)C(=O)N(C)C(C)C)c3ccc4c(c3)OCO4)ccc2c1 : true (1)

Request: Please share the test call associated with C/C=C/C=C/C(=O)O .
Result: false (0)

Request: Tell me the assay call for NS(=O)(=O)O please.
Result: false (0)

Request: Hi, do you know how CC(=O)CCC(=O)O came out in this test?
Result: false (0)

Request: Recorded call for Cc1cc(=O)oc2cc(O)ccc12 ?
Result: false (0)

Request: Per the records of this test, what outcome belongs to Cc1cn([C@H]2C=C[C@@H](CO)O2)c(=O)[nH]c1=O ?
Result: false (0)

Request: Test call, this compound: Cc1cccc(C)c1
Result: false (0)

Request: State the result this test recorded for CCCC[P+](CCCC)(CCCC)CCCC .
Result: false (0)

Request: Outcome? COc1ccc(OC(F)(F)F)cc1CN[C@H]1CCCN[C@H]1c1ccccc1
Result: true (1)

Request: GET /call?item= CC1(C)O[C@@H]2C[C@H]3[C@@H]4CCC5=CC(=O)C=C[C@]5(C)[C@@]4(F)[C@@H](O)C[C@]3(C)[C@]2(C(=O)CO)O1 returns the recorded outcome of this test.
Result: false (0)

Request: Given Cc1ncc([N+](=O)[O-])n1CCO , state the outcome it received in this test.
Result: false (0)

Request: Called result for OC[C@H]1O[C@H](O[C@]2(CCl)O[C@H](CCl)[C@@H](O)[C@@H]2O)[C@H](O)[C@@H](O)[C@H]1Cl
Result: false (0)

Request: Query: recorded result category for Cc1cc(C)nc(NS(=O)(=O)c2ccc(N)cc2)n1 in this test
Result: false (0)

---

- Measured on: Estrogen receptor (Homo sapiens) (UniProt P03372)
- Sequence (P03372 whole entry, looked up): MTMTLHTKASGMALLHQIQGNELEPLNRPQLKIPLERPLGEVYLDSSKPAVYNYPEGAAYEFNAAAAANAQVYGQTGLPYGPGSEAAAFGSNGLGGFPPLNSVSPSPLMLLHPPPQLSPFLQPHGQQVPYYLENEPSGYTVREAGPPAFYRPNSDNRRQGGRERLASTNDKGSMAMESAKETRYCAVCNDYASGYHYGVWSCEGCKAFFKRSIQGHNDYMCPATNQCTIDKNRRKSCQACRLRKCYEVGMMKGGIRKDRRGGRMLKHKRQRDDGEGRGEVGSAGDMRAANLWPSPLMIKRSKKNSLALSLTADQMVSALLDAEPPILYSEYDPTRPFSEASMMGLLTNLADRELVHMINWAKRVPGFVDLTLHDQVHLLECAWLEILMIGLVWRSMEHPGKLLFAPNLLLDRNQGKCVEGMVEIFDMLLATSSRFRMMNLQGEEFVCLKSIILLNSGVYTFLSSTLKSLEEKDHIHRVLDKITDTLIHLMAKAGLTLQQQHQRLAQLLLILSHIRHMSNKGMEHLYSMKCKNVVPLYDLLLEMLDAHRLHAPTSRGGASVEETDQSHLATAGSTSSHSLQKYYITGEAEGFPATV
- Test description: qHTS assay to identify small molecule antagonists of the estrogen receptor alpha (ER-alpha) signaling pathway using the BG1 cell line in the presence of 0.1 nM 17-beta-estradiol (AID 1259244); also: nearly all actives have a fitted effect of over 50% in size
- Measurement setup: VM7Luc4E2 (BG1) ERE-luciferase, antagonist mode, 0.1 nM E2, 22 h; series mostly up to 92.4 µM
Results filed as inconclusive are left out. Activity calls are given as the source filed them. Calls follow the shape of the dose curve; as a rule, active = well fitted inhibition curve with a large enough effect in the repeat runs; inconclusive = weak or mixed curves; inactive = no such curve, though single readings can be large or run the other way.
The categories you may choose from are active, inactive

A selection of reference data follows.
NC(=O)n1c(O)c(C(=O)c2cccs2)c2cc(Cl)ccc21 : active
CCCCC1(COC(=O)CCC(=O)O)C(=O)N(c2ccccc2)N(c2ccccc2)C1=O : inactive
CCN(CC)C(=O)c1cccc(C)c1 : inactive
C=CCc1ccc(O)c(OC)c1 : inactive
COc1cccc(O)c1O : inactive
CCOc1ccc(NC(C)=O)cc1 : inactive

Lab note: next compound to report on.
Request: Field: outcome | Entry: Nc1ccc2c(c1)CN1C(=O)c3ccccc3C1=N2
Result: active

---

- Test description: qHTS assay to identify small molecule agonists of the RXR signaling pathway - cell viability counter screen (AID 1159529); also: nearly all actives have a fitted effect of over 50% in size
- Measurement setup: RXR-alpha-bla HEK293T viability, CellTiter-Glo, 16 h; series mostly up to 76.8 µM
Results filed as inconclusive are left out. The source made the active and inactive calls. Calls come from the whole dose curve; as a rule, active = well fitted cell-killing curve with a large enough effect in the repeat runs; inconclusive = weak or mixed curves, or effect the other way; inactive = no such curve, though single readings can be large or run the other way.
Just give me one of these, please: active, inactive

Recorded results for 5 compounds are shown here.
CN1CCC[C@H]1c1cccnc1 : inactive
COc1ccc2cc(S(=O)(=O)N[C@H](CC(=O)N[C@H](Cc3ccc(CN4[C@H](C)CCC[C@@H]4C)cc3)C(=O)N(C)C(C)C)c3ccc4c(c3)OCO4)ccc2c1 : active
CC(=O)C(=O)O : inactive
O=C(O)CC(O)C(=O)O (stereo unspecified) : inactive
CN1[C@@H]2CC(OC(=O)[C@H](CO)c3ccccc3)C[C@H]1[C@@H]1O[C@@H]12 (stereo partly specified) : inactive

Proceed to the following item.
Request: Recorded test call requested for CC(=O)CC(c1ccccc1)c1c(O)c2ccccc2oc1=O (stereo unspecified)
Result: inactive

---

- Test description: qHTS assay to identify small molecule antagonists of the peroxisome proliferator-activated receptor gamma (PPARg) signaling pathway - cell viability counter screen (AID 743194); also: nearly all actives have a fitted effect of over 55% in size
- Measurement setup: PPARg-bla HEK293H viability, CellTiter-Glo luminescence, 17 h, co-treated with 50 nM rosiglitazone; series mostly up to 62.6 µM
Records with an inconclusive call do not appear. Active and inactive are the calls of the source. Calls come from the whole dose curve; as a rule, active = well fitted cell-killing curve with a large enough effect in the repeat runs; inconclusive = weak or mixed curves, or effect the other way; inactive = no such curve, though single readings can be large or run the other way.
A correct response names exactly one class from true (1) (active), false (0) (inactive)

Past entries and their recorded results:
CC(=O)C(=O)O : false (0)
Cc1ccc(S(=O)(=O)O)cc1 : false (0)
CCCCCCc1ccc(O)cc1O : false (0)
Cn1c(=O)c2c(ncn2C)n(C)c1=O : false (0)
CN1CCC[C@H]1c1cccnc1 : false (0)

Request: Please share the test call associated with Nc1c(N=Nc2ccc(-c3ccc(N=Nc4cc(S(=O)(=O)O)c5ccccc5c4N)cc3)cc2)cc(S(=O)(=O)O)c2ccccc12 .
Result: false (0)

Request: So what was the verdict on CC(O)(P(=O)(O)O)P(=O)(O)O in this test?
Result: false (0)

Request: Which outcome did this test record for the compound CC12CCC(CC1)C(C)(C)O2 ?
Result: false (0)

Request: What was the test verdict on CCN(Cc1c(F)cccc1Cl)c1c([N+](=O)[O-])cc(C(F)(F)F)cc1[N+](=O)[O-] ?
Result: false (0)

---

- Test description: qHTS assay for small molecule agonists of the p53 signaling pathway - cell viability (AID 651633);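 also: p53RE-bla HCT reporter cells with a stable beta-lactamase p53 reporter; nearly all actives have a fitted effect of over 30% in size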
- Measurement setup: p53RE-bla HCT-116 viability, ATP luminescence, 16 h; series mostly up to 83.3 µM
Results filed as inconclusive are left out. The source made the active and inactive calls. Calls come from the whole dose curve.
Quantity: outcome

Use these answered entries as a reference point.
O=C1c2c(O)cccc2Cc2cccc(O)c21 : inactive
COc1ccc(C(Cl)=C(c2ccc(OC)cc2)c2ccc(OC)cc2)cc1 : inactive
O=CC(=O)c1ccccc1 : inactive
C=CCc1ccc(O)c(OC)c1 : inactive

Okay, next one:
Request: Endpoint output: outcome of Oc1ccccc1 . Value?
Result: inactive

---

- Test description: qHTS RealTime-Glo MT Cell Viability Assay in HepG2 cells - 32 hour (AID 1224877); also: nearly all actives have a fitted effect of over 55% in size
- Measurement setup: RealTime-Glo luminescence; series mostly up to 76.8 µM
Results filed as inconclusive are left out. Active and inactive are the calls of the source. Calls follow the shape of the dose curve; as a rule, active = well fitted cell-killing curve with a large enough effect in the repeat runs; inconclusive = weak or mixed curves; inactive = flat fitted curve, though single readings scatter.
Log the outcome using a class from YES (active), NO (inactive)

Solved entries:
Cc1ccc(S(=O)(=O)O)cc1 : NO
Cc1ncc([N+](=O)[O-])n1C : NO
CC(C)c1c(C(=O)Nc2ccccc2)c(-c2ccccc2)c(-c2ccc(F)cc2)n1CC[C@@H](O)C[C@@H](O)CC(=O)O : NO
CCOC(N)=O : NO
C=C(C)C(=O)OCC(C)O (stereo unspecified) : NO
CC(=O)CCC(=O)O : NO
F[B-](F)(F)F : NO
CS(=O)(=O)OCCCCOS(C)(=O)=O : NO
CC(=O)C(=O)O : NO
Oc1ccccc1 : NO

Request: What call does the record list for Cc1c(C(=O)O)c(O)cc2c1C(=O)c1c(O)c([C@@H]3O[C@H](CO)[C@@H](O)[C@H](O)[C@H]3O)c(O)c(O)c1C2=O ?
Result: NO

Request: What did this assay record as the result for Nc1ccc([N+](=O)[O-])cc1O ?
Result: NO

Request: # fetch the recorded call for O=C(O)CC(O)C(=O)O (stereo unspecified) here
Result: NO

Request: Which outcome was entered for the molecule COc1cccc(O)c1O in this test?
Result: NO

Request: Given C=C1CC[C@H](O)C/C1=C\C=C1/CCC[C@]2(C)[C@@H]([C@H](C)CCCC(C)C)CC[C@@H]12 , state the outcome it received in this test.
Result: NO

Request: So what was the verdict on C=CCc1ccc(O)c(OC)c1 in this test?
Result: NO

Request: Identify the outcome logged in this assay for the molecule shown: CCN(CC)C(=O)c1cccc(C)c1
Result: NO

Request: Recorded call for O=c1[nH]cnc2c1ncn2[C@H]1CC[C@@H](CO)O1 ?
Result: NO

Request: Please state the recorded outcome for this molecule: CC(=O)Nc1c(I)c(NC(C)=O)c(I)c(C(=O)O)c1I
Result: NO

Request: Returns: the outcome recorded for CN[C@H]1CC[C@@H](c2ccc(Cl)c(Cl)c2)c2ccccc21 in this assay.
Result: YES

Request: Each molecule tested received a call. Report the one for Cc1cn([C@H]2C=C[C@@H](CO)O2)c(=O)[nH]c1=O .
Result: NO

Request: What call does the record list for CNNCc1ccc(C(=O)NC(C)C)cc1 ?
Result: NO

Request: Assay outcome for CN1[C@@H]2CC(OC(=O)[C@H](CO)c3ccccc3)C[C@H]1[C@@H]1O[C@@H]12 (stereo partly specified) : what was it?
Result: NO

Request: So what was the verdict on CN(C)C(=O)Nc1ccc(Cl)c(Cl)c1 in this test?
Result: NO

Request: Test call for this molecule, please: Nc1c(N=Nc2ccc(-c3ccc(N=Nc4cc(S(=O)(=O)O)c5ccccc5c4N)cc3)cc2)cc(S(=O)(=O)O)c2ccccc12
Result: YES

Request: Field: outcome | Entry: COc1ccc(OC(F)(F)F)cc1CN[C@H]1CCCN[C@H]1c1ccccc1
Result: YES

The measurements presented in this section are drawn from PubChem BioAssay (Tox21).
